target: T1, deglycosylated V domain of human CD33 (human, UniProt P20138 18-139, limits assumed, N-glycans removed by PNGase); assay: SPR, Fab captured, 37C;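 note: biacore 8K surface plasmon resonance with Fabs held on an amine-coupled anti-Fab antibody surface, soluble monomeric CD33 domain injected as analyte, double-referenced 1:1 binding fit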
T1 construct: V domain deglycosylated by PNGase before testing; also called deglycosylated V CD33
Measured Quantity: kon (M⁻¹ s⁻¹)
# output: bare number, implied unit M⁻¹ s⁻¹

[
  {
    "Binder": "ADI-10164 Fab (Fab, V domains shown, Fab fragment; also called Ab18) VH: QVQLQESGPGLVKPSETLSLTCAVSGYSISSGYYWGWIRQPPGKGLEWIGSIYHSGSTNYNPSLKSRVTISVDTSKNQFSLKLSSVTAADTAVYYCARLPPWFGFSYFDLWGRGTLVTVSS VL: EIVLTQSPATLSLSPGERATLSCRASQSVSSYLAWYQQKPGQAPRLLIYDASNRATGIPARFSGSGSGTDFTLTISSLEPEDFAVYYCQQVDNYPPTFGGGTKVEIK",
    "Measured Quantity": "kon",
    "Output Unit": "M⁻¹ s⁻¹",
    "Reported Measurement": 811000
  },
  {
    "Binder": "ADI-11839 Fab (Fab, V domains shown, Fab fragment; also called Ab28) VH: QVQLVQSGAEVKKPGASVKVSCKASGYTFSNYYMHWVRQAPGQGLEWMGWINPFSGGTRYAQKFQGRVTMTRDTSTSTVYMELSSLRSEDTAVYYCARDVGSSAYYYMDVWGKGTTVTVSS VL: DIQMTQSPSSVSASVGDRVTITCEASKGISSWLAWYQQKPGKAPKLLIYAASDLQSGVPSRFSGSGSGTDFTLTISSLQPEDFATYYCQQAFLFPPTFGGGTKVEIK",
    "Measured Quantity": "kon",
    "Output Unit": "M⁻¹ s⁻¹",
    "Reported Measurement": "1.65e+06"
  }
]

Now consider a different binder.
What value of kon has been reported for the following binder? ADI-11825 Fab (Fab, V domains shown, Fab fragment; also called Ab25) VH: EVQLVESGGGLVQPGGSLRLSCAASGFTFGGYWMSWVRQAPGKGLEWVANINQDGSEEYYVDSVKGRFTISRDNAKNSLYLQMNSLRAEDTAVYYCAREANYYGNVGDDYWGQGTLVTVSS VL: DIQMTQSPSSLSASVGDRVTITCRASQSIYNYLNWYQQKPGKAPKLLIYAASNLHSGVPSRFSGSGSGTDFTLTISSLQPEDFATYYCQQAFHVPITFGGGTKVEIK 5.78e+06
